The following compounds are listed with their measured melting point values.

Some solved entries appear below for comparison.
[
  {
    "Molecular String": "CS(=O)(=O)c1ccc(-n2nc(C(F)(F)F)cc2-c2ccc(-c3cscn3)cc2)cc1Cl",
    "melting point": "103 to 107 °C"
  },
  {
    "Molecular String": "COCCOc1ccccc1S(=O)(=O)NC(=O)Nc1nc(Cl)cc(OC)n1",
    "melting point": "166 to 168 °C"
  },
  {
    "Molecular String": "Cc1nc(-c2ccccc2)nc(N2CCN(c3ccc(O)cc3)CC2)c1C",
    "melting point": "202 °C"
  },
  {
    "Molecular String": "O=c1ccn([C@H]2[C@H](O)[C@H](O)[C@@H](CO)C23CC3)c(=O)[nH]1",
    "melting point": "114 to 116 °C"
  },
  {
    "Molecular String": "O=C1C=C(c2ccc(C(=O)N3Cc4cccn4Cc4ccccc43)cc2)CCC1",
    "melting point": "205 to 207 °C"
  }
]

(Q) Assign melting point to the following record: CCOC(=O)NC(=S)SCc1ccc(Cl)cc1
(A) 80 °C

(Q) Assign melting point to the following record: Cc1nnc(-c2ccc3occ(-c4ccc(C#N)cc4)c3c2)o1
(A) 201 to 202 °C

----------
Experimental Endpoint: melting point

Some solved entries appear below for comparison.
[
  {
    "Compound": "COC(=O)c1ccc(-c2cn(Cc3cccnc3)c3c2CCc2nc4c(nc2-3)C(C)(C)CCC4(C)C)cc1",
    "melting point": "245 to 247 °C"
  },
  {
    "Compound": "N#CC1OC(COC(=O)c2ccccc2)C(OC(=O)c2ccccc2)C1OC(=O)c1ccccc1 (stereo not given)",
    "melting point": "77 to 78 °C"
  },
  {
    "Compound": "Cc1cccc(-c2[nH]c(C(C)C)nc2-c2cccc(-c3ccc(NS(=O)(=O)C4CC4)cn3)c2)n1",
    "melting point": "133 to 136 °C"
  },
  {
    "Compound": "COCCCN1CCC(CNC(=O)c2cc(Cl)c(N)c(OC)c2OC)C(O)C1 (stereo not given)",
    "melting point": "110 °C"
  },
  {
    "Compound": "NC(=O)c1ncn2c(-c3cc(Cl)ccc3Cl)ccnc12",
    "melting point": "230 to 234 °C"
  }
]

(Q) Assign melting point to the following record: COc1ccc(CCC2SC(=O)NC2=O)c2ccc(=O)n(C)c12 (stereo not given)
(A) 222 to 224 °C

(Q) Assign melting point to the following record: CCCCCC(C)N(Cc1ccc(OCCC(C)C)cc1)C(Nc1ccc(OC)cc1OC)=C1C(=O)COC1=O (stereo not given)
(A) 125 to 127 °C

(Q) Assign melting point to the following record: CCCCCCCCCCOc1ccc(OCCCC#CCOC)cc1
(A) 33 to 34 °C

(Q) Assign melting point to the following record: COc1ccc2c(c1)c(C=O)c(C)n2C(=O)c1ccc(Cl)cc1
(A) 150 to 152 °C

----------
The following molecules are listed with their measured melting point values.
Numeric only. Scale: °C

Some solved entries appear below for comparison.
[
  {
    "Molecule": "CC(C)(C)CC(C)(C)c1cc(Cc2cc(C(C)(C)C)cc(-n3nc4ccccc4n3)c2O)c(O)c(C(C)(C)CC(C)(C)C)c1",
    "Quantity Unit": "°C",
    "melting point": 166
  },
  {
    "Molecule": "CCCC12CSC(SC1)SC2",
    "Quantity Unit": "°C",
    "melting point": 139
  },
  {
    "Molecule": "CN1CC(CN)Oc2c(-c3ccccc3C(F)(F)F)cccc21 (stereo not given)",
    "Quantity Unit": "°C",
    "melting point": 90
  }
]

(Q) Assign melting point to the following record: O=C(O)COc1c(I)cc(C(=O)c2cccs2)cc1I
(A) 160

----------
Experimental Endpoint: melting point

Some solved entries appear below for comparison.
[
  {
    "Molecule": "COc1ccccc1Oc1ccc(Br)cc1OC",
    "melting point": "58 to 60 °C"
  },
  {
    "Molecule": "O=c1cc(-c2ccc(O)c(F)c2)oc2ncccc12",
    "melting point": "267 to 268 °C"
  },
  {
    "Molecule": "CC(=NO)c1nn(C)c2cc(OCC3CC3(Cl)Cl)c(F)cc12 (configuration not stated)",
    "melting point": "150 to 152 °C"
  },
  {
    "Molecule": "COc1ccc(-c2nc(Sc3ccccc3F)[nH]c2-c2ccc(OC)cc2)cc1",
    "melting point": "195 °C"
  },
  {
    "Molecule": "CCCCCCCCCCCCCCCc1c([N+](=O)[O-])cc([N+](=O)[O-])c(O)c1[N+](=O)[O-]",
    "melting point": "53 to 56 °C"
  }
]

(Q) Assign melting point to the following record: O=C1NCC(C(=O)O)S1 (configuration not stated)
(A) 148 to 150 °C

(Q) Assign melting point to the following record: Cc1cc(Cc2cnc(Cl)nc2Cl)c2cccnc2c1N
(A) 209 to 211 °C

(Q) Assign melting point to the following record: CCCOc1ccc(C=CC(=O)N2CCN(C)CC2)cc1-c1nc2c(C)cccc2c(=O)[nH]1
(A) 184 to 185 °C

(Q) Assign melting point to the following record: COC(=O)c1cccc(-c2cn(C)cc(-c3cccc(C)c3)c2=O)c1
(A) 180 to 183 °C

(Q) Assign melting point to the following record: Cc1nc(-c2ccccc2)c(NC(=O)Nc2ccccc2)s1
(A) 199 to 201 °C

(Q) Assign melting point to the following record: COC(=O)c1ccccc1C1=NC(C)(C(C)C)C(=O)N1Sc1ccccc1[N+](=O)[O-] (configuration not stated)
(A) 143 to 148 °C

(Q) Assign melting point to the following record: CC(=O)OC(C)c1ccc(C=C(C)c2ccc3c(c2)C(C)(C)CCC3(C)C)cc1 (configuration not stated)
(A) 85 to 86 °C

(Q) Assign melting point to the following record: CCCCCS(=O)(=O)NC(=O)/C=C/c1ccc(OCCOC)cc1Oc1ncc(-c2ccccc2)cc1C
(A) 133 to 134 °C

(Q) Assign melting point to the following record: CCC(C)C(NC(=O)OC)C(=O)NN(Cc1ccc(-c2nccs2)cc1)CC(O)C(Cc1ccccc1)NC(=O)C(NC(=O)OC)C(C)C (configuration not stated)
(A) 227 to 229 °C

(Q) Assign melting point to the following record: CNc1nc(NN)ncc1C#N
(A) 247 to 249 °C

(Q) Assign melting point to the following record: Cc1cc(O)c(Oc2ccccc2C#N)cc1N1CCOCC1
(A) 162 to 165 °C

(Q) Assign melting point to the following record: CC(=O)N(C(C)=O)c1c(Cl)c(C)nn1C(CCN1C(=O)c2ccccc2C1=O)=NOS(=O)(=O)c1ccc(C)cc1
(A) 143 to 147 °C

(Q) Assign melting point to the following record: CCn1c(N)c(C(=O)NC)c(=O)c2ccc(C#CC(C)(C)OCC(N)=O)nc21
(A) 204 °C

(Q) Assign melting point to the following record: CC(C)(C)NS(=O)(=O)c1cccc(F)n1
(A) 88 to 90 °C

(Q) Assign melting point to the following record: N=C(N=C1NC(=O)C(=O)N1c1ccc(Cl)c(Cl)c1)Nc1ccc(Cl)c(Cl)c1
(A) 220 °C

(Q) Assign melting point to the following record: CCCCOc1ccc(S(C)(=O)=O)cc1-c1nc2c(CC)n(CCN3CCOCC3)nc2c(=O)[nH]1
(A) 235 to 238 °C

(Q) Assign melting point to the following record: CC1(C)CC(=O)Nc2ccc(-c3cccc(C#N)c3)cc21
(A) 190 to 192 °C

(Q) Assign melting point to the following record: O=[N+]([O-])c1cn2c(n1)OC[C@@H](OCc1ccc(Br)cn1)C2
(A) 171 to 173 °C

(Q) Assign melting point to the following record: ClCc1nc2ccccc2s1
(A) 34 °C

(Q) Assign melting point to the following record: CCOC(=O)c1ccc(OCc2ccc(Cl)cc2)cc1
(A) 83 to 84 °C

(Q) Assign melting point to the following record: CC(=O)c1ccc2c(c1)ncn2-c1cccc(-c2cncnc2)c1
(A) 253 to 254 °C

(Q) Assign melting point to the following record: CCCc1nc2c(N)nc3cc(OCc4cccnc4)ccc3c2s1
(A) 167 to 169 °C

----------
The following compounds are listed with their measured melting point values.

[
  {
    "Compound": "CSCC[C@H](NC(=O)c1cc(NC(Cn2ccnc2)c2ccc(F)cc2)ccc1Cc1ccc(F)cc1)C(=O)O (stereo not given in full)",
    "melting point": "130 to 135 °C"
  },
  {
    "Compound": "CN1c2ccc(-c3ccc4ccccc4c3)cc2S(=O)(=O)c2cc(-c3ccc4ccccc4c3)ccc21",
    "melting point": "328 to 332 °C"
  },
  {
    "Compound": "CCCCc1nn(-c2ccccc2C(F)(F)F)c(=O)n1Cc1ccc(-c2ccccc2S(=O)(=O)NC(=O)c2ccccc2Cl)cc1F",
    "melting point": "88 to 90 °C"
  },
  {
    "Compound": "CN1CCCC1=NC(=O)Nc1cccc2ccccc12",
    "melting point": "148 to 149 °C"
  }
]

Let us examine a further case.
(Q) Assign melting point to the following record: S=c1[nH]c2c(n1Nc1cccc(Cl)c1)CCCC2
(A) 148 °C
